attribute.measured: melting point

compound: Cc1ccc2sc(C(=O)O)cc(=O)c2c1
melting point: 236 to 237 °C

Query string: Tell me its melting point given `COc1ccc(C(=O)SC[C@@H](C)C(=O)N2CCC[C@H]2C(=O)O)cc1` as the entry.
Result string: 140 to 141 °C

Query string: Determine from records and report melting point for `COC(=O)Cc1ccccc1Cc1ccccc1C(=O)O`
Result string: 121 to 123 °C

Query string: Complete the entry with melting point for `O=C(NC(=S)Nc1ccc2nsnc2c1Cl)c1ccccc1`
Result string: 220 to 222 °C

Query string: Supply melting point value. Item: `[O-][N+]1=C(c2ccccc2F)c2cc(Cl)ccc2-c2ncncc2C1`
Result string: 185 to 186 °C
